Where do these numbers come from? They come from ChEMBL document CHEMBL2157949.

- system: Trifunctional purine biosynthetic protein adenosine-3 (Homo sapiens)
- Sequence (P22102 whole entry): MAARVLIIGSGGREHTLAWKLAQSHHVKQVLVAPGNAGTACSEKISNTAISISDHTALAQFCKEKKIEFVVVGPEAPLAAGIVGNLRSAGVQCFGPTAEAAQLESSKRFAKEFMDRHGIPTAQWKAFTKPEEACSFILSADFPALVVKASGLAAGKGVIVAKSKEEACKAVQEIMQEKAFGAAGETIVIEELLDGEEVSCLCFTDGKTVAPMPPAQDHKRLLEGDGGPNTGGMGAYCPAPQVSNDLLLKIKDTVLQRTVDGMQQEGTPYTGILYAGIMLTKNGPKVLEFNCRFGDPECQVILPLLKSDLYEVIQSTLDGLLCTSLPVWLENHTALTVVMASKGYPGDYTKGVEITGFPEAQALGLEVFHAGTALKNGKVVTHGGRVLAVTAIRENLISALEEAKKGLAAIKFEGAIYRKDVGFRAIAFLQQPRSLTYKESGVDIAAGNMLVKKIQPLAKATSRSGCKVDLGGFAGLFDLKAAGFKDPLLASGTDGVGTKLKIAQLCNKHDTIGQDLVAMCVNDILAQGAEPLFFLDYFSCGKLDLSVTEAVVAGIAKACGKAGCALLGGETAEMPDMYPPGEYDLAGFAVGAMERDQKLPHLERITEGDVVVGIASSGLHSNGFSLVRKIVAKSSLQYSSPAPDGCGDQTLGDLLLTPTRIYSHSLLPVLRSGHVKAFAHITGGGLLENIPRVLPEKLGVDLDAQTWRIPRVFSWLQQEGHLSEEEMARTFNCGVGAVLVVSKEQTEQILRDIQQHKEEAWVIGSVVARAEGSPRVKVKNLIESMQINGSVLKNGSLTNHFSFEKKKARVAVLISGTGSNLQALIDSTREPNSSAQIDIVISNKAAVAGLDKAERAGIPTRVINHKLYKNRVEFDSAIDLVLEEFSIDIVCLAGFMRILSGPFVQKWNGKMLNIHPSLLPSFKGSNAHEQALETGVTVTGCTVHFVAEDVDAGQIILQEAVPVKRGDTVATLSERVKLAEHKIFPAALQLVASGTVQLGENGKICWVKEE
- test: Inhibition of GARFTase in human IGROV1 cells assessed as reduction in [14C]glycine incorporation into [14C]formyl GAR incubated for 15 hrs in complete folate free RPMI medium in presence of 2 nM leucovorin
- Assay type: cell-based, IGROV-1
endpoint: IC50 (nM)
Unit nM implied. Number only.

Nc1nc2[nH]c(CCCCc3ccc(C(=O)N[C@@H](CCC(=O)O)C(=O)O)s3)cc2c(=O)[nH]1; 3.46

# evaluate next
Prompt: I'm curious: which IC50 was measured for Nc1nc2[nH]c(CCCCc3cc(C(=O)N[C@@H](CCC(=O)O)C(=O)O)cs3)cc2c(=O)[nH]1 tested on Trifunctional purine biosynthetic protein adenosine-3 (Homo sapiens)?
Completion: 2.03

###

- system: UniProtKB Q96NT5
- Sequence (Q96NT5 whole entry): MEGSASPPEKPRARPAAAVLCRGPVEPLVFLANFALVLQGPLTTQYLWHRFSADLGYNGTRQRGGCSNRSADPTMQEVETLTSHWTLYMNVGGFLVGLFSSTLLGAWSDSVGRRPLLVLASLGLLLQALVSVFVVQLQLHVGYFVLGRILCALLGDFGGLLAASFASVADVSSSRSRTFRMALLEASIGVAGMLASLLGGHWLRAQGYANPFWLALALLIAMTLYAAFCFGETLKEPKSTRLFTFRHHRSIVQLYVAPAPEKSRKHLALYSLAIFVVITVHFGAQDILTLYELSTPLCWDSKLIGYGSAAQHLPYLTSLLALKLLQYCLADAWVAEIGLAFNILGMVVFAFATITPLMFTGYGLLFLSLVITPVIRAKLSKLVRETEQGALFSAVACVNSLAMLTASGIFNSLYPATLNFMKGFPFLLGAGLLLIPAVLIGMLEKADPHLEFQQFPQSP
- test: Inhibition of [3H]MTX transport at human PCFT expressed in Chinese hamster R2 cells at pH 6.8 by Dixon plot
- Format: cell-based
endpoint: pKi
For clarity, pKi is expressed as the negative log10 of concentration in mol/L.

Nc1nc2[nH]c(CCCCc3cc(C(=O)N[C@@H](CCC(=O)O)C(=O)O)cs3)cc2c(=O)[nH]1; 4.51

Now take the following compound into account.
Prompt: For the compound shown here, Nc1nc2[nH]c(CCCCc3csc(C(=O)N[C@@H](CCC(=O)O)C(=O)O)c3)cc2c(=O)[nH]1 , give the reported pKi.
Completion: 4.55

###

- test: Growth inhibition of Chinese hamster RT16 cells expressing human folate receptor alpha incubated for 96 hrs by CellTiter-blue cell viability assay
- Format: functional, cell-based
- study conditions: Cricetulus griseus, RT16, 96 h
endpoint: IC50

Prompt: Which IC50 reading was recorded for the compound Nc1nc2[nH]c(CCCCc3csc(C(=O)N[C@@H](CCC(=O)O)C(=O)O)c3)cc2c(=O)[nH]1 ?
Completion: 2.54 nM

Prompt: Param item = Nc1nc2[nH]c(CCC#Cc3cc(C(=O)N[C@@H](CCC(=O)O)C(=O)O)cs3)cc2c(=O)[nH]1 ; retrieve measured IC50.
Completion: 8.26 nM

Prompt: Can you share its IC50? I mean this compound: Nc1nc2[nH]c(CCC#Cc3sccc3C(=O)N[C@@H](CCC(=O)O)C(=O)O)cc2c(=O)[nH]1
Completion: > 1000 nM

Prompt: If you can, please state the reported IC50 value of Nc1nc2[nH]c(CCCCc3ccsc3C(=O)N[C@@H](CCC(=O)O)C(=O)O)cc2c(=O)[nH]1 .
Completion: > 1000 nM

Prompt: Entry Nc1nc2[nH]c(CCCCc3sccc3C(=O)N[C@@H](CCC(=O)O)C(=O)O)cc2c(=O)[nH]1 has what IC50?
Completion: > 1000 nM

Prompt: What does the data say about its IC50? Entry: Nc1nc2[nH]c(CCCCc3cc(C(=O)N[C@@H](CCC(=O)O)C(=O)O)cs3)cc2c(=O)[nH]1
Completion: 2.6 nM

Prompt: # IC50 lookup, item Nc1nc2[nH]c(CCC#Cc3cscc3C(=O)N[C@@H](CCC(=O)O)C(=O)O)cc2c(=O)[nH]1
Completion: > 1000 nM

Prompt: Which IC50 value belongs to Nc1nc2[nH]c(CCC#Cc3ccsc3C(=O)N[C@@H](CCC(=O)O)C(=O)O)cc2c(=O)[nH]1 ?
Completion: > 1000 nM

Prompt: Give its IC50 value. Item: Nc1nc2[nH]c(CCC#Cc3csc(C(=O)N[C@@H](CCC(=O)O)C(=O)O)c3)cc2c(=O)[nH]1
Completion: 13.5 nM

Prompt: What measured IC50 goes with Nc1nc2[nH]c(CCCCc3cscc3C(=O)N[C@@H](CCC(=O)O)C(=O)O)cc2c(=O)[nH]1 ?
Completion: 147 nM

Prompt: Quick check: IC50 of Nc1nc2[nH]c(CCC#Cc3ccc(C(=O)N[C@@H](CCC(=O)O)C(=O)O)s3)cc2c(=O)[nH]1 ?
Completion: 12.1 nM

###

Attribute: IC50
- System: KB
- test: Growth inhibition of human KB cells endogenously expressing RFC/FRalpha/PCFT in presence of 50 nM leucovorin incubated for 96 hrs by CellTiter-blue cell viability assay
- Type: functional, cell-based
All answers are understood in nM, so give the number only.

Nc1nc2[nH]c(CCCCc3ccc(C(=O)N[C@@H](CCC(=O)O)C(=O)O)s3)cc2c(=O)[nH]1; 2.2

// next entry
Prompt: For the compound Nc1nc2[nH]c(CCCCc3csc(C(=O)N[C@@H](CCC(=O)O)C(=O)O)c3)cc2c(=O)[nH]1 , what IC50 is on record?
Completion: 3.4

###

- system: Proton-coupled folate transporter (Homo sapiens, UniProt Q96NT5)
- test: Inhibition of [3H]MTX transport at human PCFT expressed in Chinese hamster R2 cells at pH 5.5 by Dixon plot
- Assay type: cell-based
endpoint: pKi
By convention, pKi is the negative base-10 log of a molar concentration.

Nc1nc2[nH]c(CCCCc3csc(C(=O)N[C@@H](CCC(=O)O)C(=O)O)c3)cc2c(=O)[nH]1; 6.41

Here's the next entry for you.
Prompt: For the compound Nc1nc2[nH]c(CCCCc3cc(C(=O)N[C@@H](CCC(=O)O)C(=O)O)cs3)cc2c(=O)[nH]1 , what pKi is on record?
Completion: 6.38

###

- System: KB
- test: Inhibition of colony formation of human KB cells endogenously expressing RFC/FRalpha/PCFT incubated for 14 days by methylene blue staining based clonogenicty assay
- Format: functional, cell-based
- study conditions: 336 h
endpoint: pIC50
Schema: pIC50 number; meaning minus log10 of the concentration expressed in molar units.

Field: example entries. Status: answers known.
Nc1nc2[nH]c(CCCCc3cc(C(=O)N[C@@H](CCC(=O)O)C(=O)O)cs3)cc2c(=O)[nH]1; 9.80
Nc1nc2[nH]c(CCCCc3ccc(C(=O)N[C@@H](CCC(=O)O)C(=O)O)s3)cc2c(=O)[nH]1; 9.70

Here's the next entry for you.
Prompt: Quick check: pIC50 on KB, item Nc1nc2[nH]c(CCCCc3csc(C(=O)N[C@@H](CCC(=O)O)C(=O)O)c3)cc2c(=O)[nH]1 ?
Completion: 9.41

###

- System: KB
- test: Growth inhibition of human KB cells endogenously expressing RFC/FRalpha/PCFT incubated for 96 hrs by CellTiter-blue cell viability assay
- Type: functional, cell-based
pIC50: −log10 of the molar value.
Decide using pIC50: a value greater than or equal to 7 is TRUE, a smaller one is FALSE.

Nc1nc2[nH]c(CCCCc3ccsc3C(=O)N[C@@H](CCC(=O)O)C(=O)O)cc2c(=O)[nH]1; FALSE

Prompt: Dear colleague, could you confirm whether Nc1nc2[nH]c(CCC#Cc3cc(C(=O)N[C@@H](CCC(=O)O)C(=O)O)cs3)cc2c(=O)[nH]1 has pIC50 at or above 7?
Completion: FALSE

Prompt: Is the recorded value of pIC50 equal to or greater than 7 for this compound? Nc1nc2[nH]c(CCC#Cc3ccc(C(=O)N[C@@H](CCC(=O)O)C(=O)O)s3)cc2c(=O)[nH]1
Completion: FALSE

###

- System: KB
- test: Growth inhibition of human KB cells endogenously expressing RFC/FRalpha/PCFT incubated for 96 hrs by CellTiter-blue cell viability assay
- Assay type: functional, cell-based
endpoint: pIC50
Convention used: pIC50 is expressed as -log10 of the molar concentration.

Answered cases to consult:
Nc1nc2[nH]c(CCCCc3cc(C(=O)N[C@@H](CCC(=O)O)C(=O)O)cs3)cc2c(=O)[nH]1; 9.57
Nc1nc2[nH]c(CCCCc3csc(C(=O)N[C@@H](CCC(=O)O)C(=O)O)c3)cc2c(=O)[nH]1; 9.77
Nc1nc2[nH]c(CCCCc3sccc3C(=O)N[C@@H](CCC(=O)O)C(=O)O)cc2c(=O)[nH]1; 6.77

Prompt: Could you share which pIC50 value was measured for Nc1nc2[nH]c(CCCCc3cscc3C(=O)N[C@@H](CCC(=O)O)C(=O)O)cc2c(=O)[nH]1 ?
Completion: 7.45
